[
  {
    "COMPOUND": "FC(F)(F)c1n[nH]c(Cl)c1Cl",
    "melting point": "58 to 60 °C"
  },
  {
    "COMPOUND": "Cc1c(CC(=O)N[C@@H](CO)C(=O)O)cc(-c2ccc(S(C)(=O)=O)cc2)n1-c1ccccc1",
    "melting point": "80 to 83 °C"
  },
  {
    "COMPOUND": "COC(=O)CC(=O)CN1C(=O)c2ccccc2C1=O",
    "melting point": "139 to 140 °C"
  },
  {
    "COMPOUND": "NC(=O)NCc1ccc2ccn(C3CCN(CCc4ccc(F)cc4)CC3)c2c1",
    "melting point": "172 to 173 °C"
  },
  {
    "COMPOUND": "CC(=O)OC1CCN2C(=O)N(c3ccc(C#N)c4ccccc34)C(=O)C12 (stereo not given)",
    "melting point": "105 °C"
  },
  {
    "COMPOUND": "CS(=O)(=O)c1ccc(C(CC2CCCC2)C(=O)Nc2ccc3ccccc3n2)cc1Br (stereo not given)",
    "melting point": "95 to 100 °C"
  },
  {
    "COMPOUND": "COC(=O)C1=C(C)NC(C)=C(C(=O)OCOC(=O)C(C)(C)C)C1c1ccccc1 (single isomer, unassigned; (+))",
    "melting point": "81 to 82 °C"
  },
  {
    "COMPOUND": "OCC1OC(n2cnc3c(NC4CCCCC4O)ncnc32)C(O)C1O (stereo not given)",
    "melting point": "210 to 211 °C"
  },
  {
    "COMPOUND": "CCN(CC)c1ccc(Cn2nc(-c3ccccc3O)nc2-c2ccccc2O)cc1",
    "melting point": "125 to 127 °C"
  },
  {
    "COMPOUND": "NC(=S)c1cn(C2OC(CO)C(O)C2O)nn1 (stereo not given)",
    "melting point": "152 to 154 °C"
  }
]

---

[
  {
    "SMILES_STRUCTURE": "Cc1nc(-c2ccccc2)sc1C(=O)NCc1ccc(OC(C)(C)C(=O)O)cc1",
    "melting point": "179 °C"
  },
  {
    "SMILES_STRUCTURE": "CC(C)(C)OC(=O)[C@@H]1CC[C@@H]2C=C[C@H]3CCN(C(=O)OC(C)(C)C)[C@@H]3C(=O)N21",
    "melting point": "147 to 149 °C"
  },
  {
    "SMILES_STRUCTURE": "Nc1nc2ccc3ccc(CNc4ccc([N+](=O)[O-])cc4)cc3c2c(=O)[nH]1",
    "melting point": "> 230 °C"
  },
  {
    "SMILES_STRUCTURE": "C[C@]1(N2C(=O)c3cccc(OCc4ccc(CN5CCOCC5)cc4)c3C2=O)CCC(=O)NC1=O",
    "melting point": "178 to 180 °C"
  },
  {
    "SMILES_STRUCTURE": "CC(=NNc1ccc(C2=NNC(=O)CC2)cc1)c1cscn1",
    "melting point": "> 300 °C"
  }
]

---

Items are presented alongside their recorded melting point.

[
  {
    "COMPOUND": "CCOCCS(=O)(=O)N1CC[C@@H](C(=O)N(C)Cc2cc(C(F)(F)F)cc(C(F)(F)F)c2)[C@H](c2ccc(F)cc2C)C1 (relative stereo)",
    "melting point": "151 to 153 °C"
  },
  {
    "COMPOUND": "CC(C)C[C@H](NC(=O)C=Cc1ccccc1)C(=O)N[C@@H](Cc1ccccc1)C(=O)CSCc1ccco1",
    "melting point": "141 to 143 °C"
  },
  {
    "COMPOUND": "Cc1cccc2c1CCN=C2c1ccc(Br)cc1",
    "melting point": "60 to 61.5 °C"
  },
  {
    "COMPOUND": "CC(Cn1cc(-c2ccccc2)c2ccccc2c1=O)NCc1ccccc1 (centres undefined)",
    "melting point": "118 °C"
  }
]

---

ASSAY_ENDPOINT: melting point

[
  {
    "COMPOUND": "Cc1onc(-c2ccccc2)c1C(=O)NCCCCl",
    "MEASURED_VALUE": "122 to 124 °C"
  },
  {
    "COMPOUND": "CCCN(CCC)C1Cc2cccc3c2N(C1)C(=O)NC3 (stereo not given)",
    "MEASURED_VALUE": "116 to 119 °C"
  },
  {
    "COMPOUND": "Cc1ccc(C#N)cc1C#N",
    "MEASURED_VALUE": "142 to 143 °C"
  },
  {
    "COMPOUND": "O=C(O)CCCCNC(=O)CCCCC1CCSS1 (stereo not given)",
    "MEASURED_VALUE": "98 to 100 °C"
  },
  {
    "COMPOUND": "COc1cccc(C(=O)N2CCN(CC3(C)Cc4c(C)c(N)c(C)c(C)c4O3)CC2)c1 (stereo not given)",
    "MEASURED_VALUE": "95 to 98 °C"
  },
  {
    "COMPOUND": "COc1nc(-c2ccccc2)c(-c2ccc(=O)n(C(C)C)n2)cc1C#N",
    "MEASURED_VALUE": "187 to 189 °C"
  },
  {
    "COMPOUND": "CCCCc1ccc(CC(Cl)C(=O)O)cc1 (stereo not given)",
    "MEASURED_VALUE": "52.7 to 53.6 °C"
  },
  {
    "COMPOUND": "CC(=O)OC1O[C@H](CC#N)[C@@H](OC(=O)c2ccccc2)[C@H]1OC(=O)c1ccccc1 (stereo not given in full)",
    "MEASURED_VALUE": "124 to 126 °C"
  },
  {
    "COMPOUND": "CC(=O)OC(C)(C)C(=O)Nc1c(C(=O)c2cc(C)ccn2)[nH]c2cc(Cl)ccc12",
    "MEASURED_VALUE": "222 to 223 °C"
  },
  {
    "COMPOUND": "O=C(O)[C@H]1C=C[C@H](c2ccccc2)n2c(=O)n(CCS)c(=O)n21 (relative stereo)",
    "MEASURED_VALUE": "153 to 154 °C"
  }
]

---

# melting point listing for each entry below

[
  {
    "COMPOUND": "Cc1cc(C2=CCN(S(=O)(=O)C3(C(=O)O)CCOCC3)CC2)ccc1-c1ccccc1",
    "melting point": "211 to 213 °C"
  },
  {
    "COMPOUND": "COc1ccnc(CCc2nc3cc(-c4ccc(S(=O)(=O)N5CCCN(C)CC5)cc4)cnc3[nH]2)c1",
    "melting point": "160 to 162 °C"
  },
  {
    "COMPOUND": "CCON=C(CC)C1=C(O)CC(c2ccc(Oc3ncc(C(F)(F)F)cc3F)cc2)CC1=O (centres undefined)",
    "melting point": "82 to 82.5 °C"
  },
  {
    "COMPOUND": "N[C@H]1CC[C@@H](C(=O)N2CCC(c3[nH]nc4c3C(=O)c3c(NC(=O)NN5CCOCC5)cccc3-4)CC2)CC1",
    "melting point": "202 to 204 °C"
  },
  {
    "COMPOUND": "COCCN1CC(C(=O)O)N(S(=O)(=O)c2ccc(OC)cc2)Cc2ccccc21 (centres undefined)",
    "melting point": "164 to 165 °C"
  },
  {
    "COMPOUND": "CON(CCCCn1c(C)nc2c(N)nc3ccccc3c21)S(C)(=O)=O",
    "melting point": "201 to 203 °C"
  },
  {
    "COMPOUND": "COc1cc2c(=O)c(S(C)=O)nn(C)c2cc1OC (centres undefined)",
    "melting point": "262 to 264 °C"
  },
  {
    "COMPOUND": "NC(=O)c1ccccc1NC(=O)c1cccnc1",
    "melting point": "220 to 222 °C"
  },
  {
    "COMPOUND": "Cc1cccc2c1nc(COc1ccc(Cl)cc1)n2CCC(Cc1ccccc1)C(=O)NCCCN1CCCCC1 (centres undefined)",
    "melting point": "91 to 93 °C"
  },
  {
    "COMPOUND": "Oc1cccc2c1CCC=C2",
    "melting point": "67 to 68 °C"
  },
  {
    "COMPOUND": "CCC(O)(c1ccc(OCCCN2CCCCC2)cc1)c1cccc(Cl)c1 (centres undefined)",
    "melting point": "80 to 81 °C"
  },
  {
    "COMPOUND": "COC(=O)c1ccc(S(C)(=O)=O)c(C=O)c1Cl",
    "melting point": "98 to 105 °C"
  },
  {
    "COMPOUND": "CC1CCCN1c1nc(C#N)nc(Cl)c1/C(Br)=C(\\Br)[Si](C)(C)C (centres undefined)",
    "melting point": "166 to 168 °C"
  },
  {
    "COMPOUND": "CCC12CCC3c4ccc(OC)cc4CCC3C1CC(=CN(C)C)C2=O (centres undefined)",
    "melting point": "157 to 159 °C"
  },
  {
    "COMPOUND": "O=P(Oc1ccc(S(=O)(=O)c2ccc(OP(=O)(c3ccccc3)c3ccccc3)cc2)cc1)(c1ccccc1)c1ccccc1",
    "melting point": "210 to 211 °C"
  },
  {
    "COMPOUND": "CCCCCCCCCCCCOCCCNc1cc(OCC(=O)Nc2ccc(NNC=O)cc2)c2ccccc2c1O",
    "melting point": "137 to 141 °C"
  },
  {
    "COMPOUND": "COc1ccc(C2CSc3ccccc3N(CC(=O)O)C2=O)cc1 (centres undefined)",
    "melting point": "180 °C"
  },
  {
    "COMPOUND": "O=C1CC(C(F)(F)F)CC(=O)N1c1ccc(Br)cc1",
    "melting point": "163 to 164 °C"
  },
  {
    "COMPOUND": "CCC(CC)Oc1ccc(-n2cc(C(=O)O)cn2)cc1C#N",
    "melting point": "142 to 144 °C"
  }
]
